Source listed as ChEMBL document CHEMBL1141541.

tested on: Serum; assay: Drug level in LPS challenged mouse serum at 5 mg/kg, po; format: ADME, organism-based; design: dose 5 mg/kg, route oral; settings: in vivo, read-out: Drug uptake
# concentration values compiled below
Output spec: scalar in nM, unitless text.

Examples with their reported concentration follow.
Inquiry: Need concentration of CNC(=O)c1ccc(C)c(NC(=O)c2cnc(NC(C)C)s2)c1 , thanks.
Reply text: 400

Inquiry: # query: concentration of entry CC[C@H](C)Nc1ncc(C(=O)Nc2cc(C(=O)NC)ccc2C)s1
Reply text: 250

Others:
Inquiry: Return reported concentration; argument: CCNC(=O)c1ccc(C)c(NC(=O)c2cnc(NC(C)C)s2)c1
Reply text: 330
